# assay-info: Pharmacokinetic and brain exposure evaluation in rats
# Assay type: in vivo, SD male rats
# condition-details: male, SD, 40 mg/kg; rat, PO 40 mpk, Cerebrospinal fluid
property-measured: AUC(0-t) (µM·h)
Write the number in µM·h without appending the unit.

Report AUC(0-t) for `Cc1cc2ncnn2cc1Nc1ncc2c(n1)n(N1CC3CCC(C1)O3)c(=O)n2C` please.
7.74

----------
# assay-info: Pharmacokinetic evaluation in cynomolgus monkeys
# Format: in vivo, Male cynomolgus monkeys
# condition-details: male, 1 mg/kg; cynomolgus monkey plasma, IV 1 mpk
property-measured: half-life (h)
Response body: numeric value in h, unit text excluded.

Sample Cc1cc2ncnn2cc1Nc1ncc2c(n1)n(N1CC3CCC(C1)O3)c(=O)n2C [Compound 5] — what was its half-life?
3.6
